# System: Zea mays (ZEAMX)
# Format: in vivo
# PROTOCOL CONDITIONS: crop plant compatibility, 80 g/ha, effect vs untreated controls
# Description: Seeds of monocotyledonous and dicotyledonous weeds and crop plants are placed in sandy loam in plastic or organic planting pots, covered with soil and cultivated in a greenhouse under controlled growth conditions. 2 to 3 weeks after sowing, the test plants are treated at the one-leaf stage. […]
QUANTITY: Post-emergence action against ZEAMX in % (%)
Lab book: enter the figure in %, no units written.

Consider the compound CCOC(=O)COc1nn(-c2ccccn2)c(-c2cncc(F)c2)c1Cl [Example I-147] and give its measured Post-emergence action against ZEAMX in %.
0

GET /values?readout=Post-emergence action against ZEAMX in %&item= O=C(O)COc1nn(-c2ccccn2)c(-c2ccc(F)nc2)c1F [Example I-373]
0

Need Post-emergence action against ZEAMX in % of COC(=O)CCOC(=O)COc1nn(-c2ccccn2)c(-c2ccc(F)nc2)c1C1CC1(F)F (centres unmarked) [Example I-248] , thanks.
0

Query: Post-emergence action against ZEAMX in %; subject: COC(=O)COc1nn(-c2cccnc2C)c(-c2cncc(F)c2)c1Cl [II-44]
0

Give the measured Post-emergence action against ZEAMX in % of COC(=O)CCOC(=O)COc1nn(-c2ccccn2)c(-c2ccc(Cl)nc2)c1Cl [Example I-243] .
0

Which Post-emergence action against ZEAMX in % is listed for C[C@H](NC(=O)COc1nn(-c2ccccn2)c(-c2cncc(F)c2)c1Br)C(=O)O [Example I-80] ?
20

Param item = CCOC(=O)C1CCN(C(=O)COc2nn(-c3ccccn3)c(-c3ccc(F)nc3)c2Br)CC1 [Example I-112] ; retrieve measured Post-emergence action against ZEAMX in %.
10

Consider the compound shown here: CCOC(=O)COc1nn(-c2ncccc2C(F)(F)F)c(-c2ccc(F)nc2)c1Cl [Example I-325] What is its recorded Post-emergence action against ZEAMX in %?
0

###

# System: Avena fatua (AVEFA)
# TEST PROTOCOL: Post-emergence herbicidal action against AVEFA
# Assay type: in vivo
# PROTOCOL CONDITIONS: 80 g/ha, visual rating about 3 weeks after treatment
# Protocol: Seeds of monocotyledonous and dicotyledonous weeds and crop plants are placed in sandy loam in plastic or organic planting pots, covered with soil and cultivated in a greenhouse under controlled growth conditions. 2 to 3 weeks after sowing, the test plants are treated at the one-leaf stage. […]
QUANTITY: Post-emergence action against AVEFA in % (%)
Give the value in % but do not write % after it.

Worked examples follow.
CCOC(=O)[C@@H](C)Oc1nn(-c2nc(F)ccc2F)c(-c2cncc(F)c2)c1C1CC1 | 90
COC(=O)COc1nn(-c2ncccc2Cl)c(-c2ccc(F)nc2)c1Br | 100
CCOC(=O)COc1nn(-c2ncccc2F)c(-c2cncc(F)c2)c1C1CC1 | 80
CCOC(=O)COc1nn(-c2ncccc2F)c(-c2ccc(F)nc2)c1C1CC1 | 80
CS(=O)(=O)NC(=O)COc1nn(-c2ncccc2F)c(-c2ccc(F)nc2)c1Br | 90
COC(=O)[C@@H](C)Oc1nn(-c2ccccn2)c(-c2cncc(F)c2)c1Cl | 90

Hello, I am looking for reported Post-emergence action against AVEFA in % with Avena fatua (AVEFA) for COCCOC(=O)COc1nn(-c2ccccn2)c(-c2ccc(F)nc2)c1Br . Could you help?
80

###

# Test system: Oryza sativa (ORYSA)
# Format: in vivo
# PROTOCOL CONDITIONS: pre-emergence, 80 g/ha, crop plant compatibility, in comparison to untreated controls
QUANTITY: Pre-emergence action against ORYSA in % (%)
Give the number; % is assumed, so skip it.

Use these answered entries as a reference point.
O=C(COc1nn(-c2ccnc(Cl)c2)c(-c2ccc(F)nc2)c1Br)NS(=O)(=O)CC(F)(F)F | 0
COC(=O)CCOC(=O)COc1nn(-c2ccccn2)c(-c2cncc(F)c2)c1C1CC1 | 10
COC(=O)CCOC(=O)COc1nn(-c2ncccc2F)c(-c2ccc(F)nc2)c1Cl | 10
COC(=O)CN(C)C(=O)COc1nn(-c2ccnc(Cl)c2)c(-c2ccc(F)nc2)c1Br | 0

Form field: reported Pre-emergence action against ORYSA in % of COC(=O)CNC(=O)COc1nn(-c2ccccn2)c(-c2ccc(F)nc2)c1Br
10

Which Pre-emergence action against ORYSA in % is reported for this molecule? O=C(CSc1nn(-c2ccccn2)c(-c2cncc(F)c2)c1Br)NC1CC1
0

Need Pre-emergence action against ORYSA in % of CCOC(=O)COc1nn(-c2ncccc2OC)c(-c2ccc(F)nc2)c1Br , thanks.
0

Can you look up the measured Pre-emergence action against ORYSA in % of CCOC(=O)COc1nn(-c2cccc(C)n2)c(-c2ccc(F)nc2)c1Br for me?
20

So what's the measured Pre-emergence action against ORYSA in % for this one? C[C@@H](Oc1nn(-c2ccc(F)cn2)c(-c2cncc(F)c2)c1Br)C(=O)O
10

For the molecule COC(=O)[C@@H](C)Oc1nn(-c2cccnc2F)c(-c2ccc(F)nc2)c1Br , what Pre-emergence action against ORYSA in % is on record?
0

Look at this molecule and give its reported Pre-emergence action against ORYSA in %. COC(=O)COc1nn(-c2ncccc2F)c(-c2cncc(F)c2)c1Br
10

Record request: Pre-emergence action against ORYSA in % value, item CCOC(=O)[C@@H](C)Oc1nn(-c2nc(F)ccc2F)c(-c2ccc(F)nc2)c1Br
20

# input molecule: CCOC(=O)COc1nn(-c2ncccc2F)c(-c2ccc(F)nc2)c1I ; wanted: its Pre-emergence action against ORYSA in %
0

###

# System: Verconica persica (VERPE)
# TEST PROTOCOL: Pre-emergence herbicidal action against VERPE
# Format: in vivo
# PROTOCOL CONDITIONS: dosage 320 g/ha
QUANTITY: Pre-emergence action against VERPE in % (%)
Please state the figure in %; there is no need to write the unit.

Example entries begin here.
COCCOC(=O)COc1nn(-c2cccc(C)n2)c(-c2ccc(F)nc2)c1Cl | 80
C[C@@H](Oc1nn(-c2ncccc2F)c(-c2ccc(F)nc2)c1Br)C(=O)O | 100
CCOC(=O)COc1nn(-c2ccccn2)c(-c2ccc(F)nc2)c1Cl | 100
COC(=O)CCOC(=O)COc1nn(-c2ccccn2)c(-c2ccc(F)nc2)c1Br | 90
C[C@@H](Oc1nn(-c2ncccc2F)c(-c2ccc(F)nc2)c1I)C(=O)O | 100
CCOC(=O)COc1nn(-c2ncccc2C(F)(F)F)c(-c2cncc(F)c2)c1I | 90
CCOC(=O)COc1nn(-c2ncccc2F)c(-c2ccc(F)nc2)c1Br [Example I-51] | 100

API: value(readout= Pre-emergence action against VERPE in %, system= Verconica persica (VERPE), query= COC(=O)CNC(=O)CSc1nn(-c2ccccn2)c(-c2cncnc2)c1Br )
80

###

compounds and their reported Pre-emergence action against SETVI in %
# System: Setaria viridis (SETVI)
# TEST PROTOCOL: Pre-emergence herbicidal action against SETVI
# Type: in vivo
# PROTOCOL CONDITIONS: dosage 80 g/ha
Provide only the numeric value, understood in %.

Answered examples (3):
O=C(O)COc1nn(-c2ccccn2)c(-c2cncc(F)c2)c1Cl | 90
COC(=O)CCOC(=O)COc1nn(-c2ccccn2)c(-c2ccc(F)nc2)c1Br | 90
CCOC(=O)COc1nn(-c2ccccn2)c(-c2ccc(F)nc2)c1Br | 100

Turning to the following compound.
Endpoint output: Pre-emergence action against SETVI in % of C[C@@H](Oc1nn(-c2ccccn2)c(-c2cncc(F)c2)c1Cl)C(=O)O . Value?
90

###

# Test system: Polygonum convolvulus (POLCO)
# TEST PROTOCOL: Post-emergence herbicidal action against POLCO
# Assay type: in vivo
# PROTOCOL CONDITIONS: dosage 80 g/ha
# Protocol: Seeds of monocotyledonous and dicotyledonous weeds and crop plants are placed in sandy loam in plastic or organic planting pots, covered with soil and cultivated in a greenhouse under controlled growth conditions. 2 to 3 weeks after sowing, the test plants are treated at the one-leaf stage. […]
// reported Post-emergence action against POLCO in % for each item listed
A complete answer gives the number and then names the unit.

What does the record list as Post-emergence action against POLCO in % for CCOC(=O)[C@@H](C)Oc1nn(-c2nc(F)ccc2F)c(-c2cncc(F)c2)c1C1CC1 [Example I-177] ?
90%

Name the reported Post-emergence action against POLCO in % value associated with the molecule O=C(O)COc1nn(-c2ccccn2)c(-c2ccnc(F)c2)c1Br [Example I-122]
90%

Tell me the measured Post-emergence action against POLCO in % of COC(=O)CNC(=O)[C@@H](C)Oc1nn(-c2ccccn2)c(-c2cncc(F)c2)c1Br [Example I-187] , please.
80%

Could you tell me which Post-emergence action against POLCO in % is on file for CCOC(=O)COc1nn(-c2ncccc2C(F)(F)F)c(-c2ccc(F)nc2)c1Br [Example I-335] ?
80%

What value of Post-emergence action against POLCO in % has been recorded for this entry: COC(=O)[C@@H](C)Oc1nn(-c2ncccc2F)c(-c2ccc(F)nc2)c1C(F)(F)F [Example I-331]
80%

Entry C[C@@H](Oc1nn(-c2ncccc2F)c(-c2ccc(F)nc2)c1C1CC1)C(=O)O [Example I-342] has what Post-emergence action against POLCO in %?
80%

Please look up its Post-emergence action against POLCO in %: COC(=O)[C@H](C)COC(=O)COc1nn(-c2ccccn2)c(-c2ccc(F)nc2)c1Br [Example I-76]
80%

For CCOC(=O)COc1nn(-c2nc(F)ccc2F)c(-c2ccc(F)nc2)c1Cl [Example I-315] , what is its reported Post-emergence action against POLCO in %?
80%

Reference for the values: patent US20240041042A1
